Target: CHT (Homo sapiens, UniProt Q9GZV3)
Sequence (Q9GZV3 1-580): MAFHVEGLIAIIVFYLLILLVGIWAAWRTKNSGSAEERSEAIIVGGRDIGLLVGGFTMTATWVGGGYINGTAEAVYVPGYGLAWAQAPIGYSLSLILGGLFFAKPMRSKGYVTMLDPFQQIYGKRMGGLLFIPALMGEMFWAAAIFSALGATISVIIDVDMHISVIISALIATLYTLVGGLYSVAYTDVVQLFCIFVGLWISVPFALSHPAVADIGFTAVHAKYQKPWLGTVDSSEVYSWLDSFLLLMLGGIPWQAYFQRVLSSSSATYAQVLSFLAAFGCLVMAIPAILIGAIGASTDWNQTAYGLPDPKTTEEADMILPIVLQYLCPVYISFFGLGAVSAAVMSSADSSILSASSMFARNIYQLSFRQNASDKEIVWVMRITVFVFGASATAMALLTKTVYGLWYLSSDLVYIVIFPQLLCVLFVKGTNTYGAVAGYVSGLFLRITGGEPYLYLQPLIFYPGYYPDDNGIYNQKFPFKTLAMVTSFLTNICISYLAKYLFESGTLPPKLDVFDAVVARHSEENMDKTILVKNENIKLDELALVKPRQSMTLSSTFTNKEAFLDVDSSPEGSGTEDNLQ
Experiment: SURFE2R solid supported membrane (SSM) electrophysiology on CHT-WT4 membrane fragments
Type: biochemical
Set-up: expressed in transfected cells; host or cells: HEK-293, lentiviral transduction, single-cell clone CHT-WT4
PROPERTY MEASURED: EC50 (µM)

>>> experimental_value("C[N+](C)(C)CCO [choline, Choline Chloride]")
25

* * *

Target: high affinity choline transporter (CHT) (Homo sapiens, UniProt Q9GZV3)
Construct: expressed in transfected cells; host or cells: HEK-293, lentiviral transduction, single-cell clone CHT-WT4
Sequence (Q9GZV3 1-580): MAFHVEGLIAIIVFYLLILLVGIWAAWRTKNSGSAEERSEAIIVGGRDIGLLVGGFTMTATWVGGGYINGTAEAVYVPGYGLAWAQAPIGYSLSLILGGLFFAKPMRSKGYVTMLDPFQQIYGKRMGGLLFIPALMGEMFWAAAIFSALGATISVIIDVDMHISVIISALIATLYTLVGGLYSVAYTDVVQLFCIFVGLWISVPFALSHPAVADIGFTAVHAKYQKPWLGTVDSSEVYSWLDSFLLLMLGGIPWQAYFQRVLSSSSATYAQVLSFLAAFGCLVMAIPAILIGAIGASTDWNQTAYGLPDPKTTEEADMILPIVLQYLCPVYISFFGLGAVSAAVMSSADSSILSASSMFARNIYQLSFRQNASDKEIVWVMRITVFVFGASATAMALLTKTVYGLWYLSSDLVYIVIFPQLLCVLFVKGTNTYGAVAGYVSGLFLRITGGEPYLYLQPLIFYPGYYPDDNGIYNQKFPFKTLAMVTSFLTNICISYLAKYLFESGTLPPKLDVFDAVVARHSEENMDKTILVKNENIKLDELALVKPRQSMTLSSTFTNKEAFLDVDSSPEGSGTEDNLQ
Experiment: Radiometric [3H]Choline uptake assay (scintillation proximity) in HEK cells expressing CHT
Type: cell-based
Conditions: 3H-choline uptake IC50 or EC50(M), PAM compounds; 10-point dose response; HEK293 CHT-WT4; n.d. = not detected
PROPERTY MEASURED: EC50 (M)

>>> experimental_value("NC(=O)N1C(=O)C(C(=O)Cc2ccccc2)c2cc(F)ccc21 (centres unmarked)")
"4.51e-06"
>>> experimental_value("CN[C@@H]1C[C@H]2O[C@@](C)([C@@H]1OC)n1c3ccccc3c3c4c(c5c6ccccc6n2c5c31)C(=O)NC4")
"1.7e-06"

* * *

Biological target: high affinity choline transporter (CHT) (Homo sapiens, UniProt Q9GZV3)
Construct: expressed in transfected cells; host or cells: HEK-293, lentiviral transduction, single-cell clone CHT-WT4
Experiment: Radiometric [3H]Choline uptake assay (scintillation proximity) in HEK cells expressing CHT
Assay type: cell-based
Details: 1 μM compound; HEK293 CHT-WT4; 100% = 10 μM Staurosporine, 0% = DMSO
PROPERTY MEASURED: 3H-choline uptake % effect 1 μM (%)

>>> experimental_value("CNC(=O)C1CCCN1c1nc(Cc2ccccc2F)cc(Nc2cc(C3CC3)[nH]n2)n1 (stereo not shown) [Compound 6]")
3.6
>>> experimental_value("CNC(=O)C1CCC(Nc2nc(Nc3ccc(S(C)(=O)=O)cc3)ncc2C(F)(F)F)C1 (stereo not shown) [Compound 7]")
"−2.4"
>>> experimental_value("N#Cc1c[nH]c2ncnc(N3CCC4(CC3)CNCc3ccc(C(F)(F)F)nc34)c12 [Compound 8]")
9.0
>>> experimental_value("Cn1ncc2nc(-c3ccnc(N)c3)nc(N3CCNCC3(C)C)c21 [Compound 9]")
24.4

* * *

Target: CHT (Homo sapiens)
Conditions: 1 μM compound; HEK293 CHT-WT4; DMSO negative control, 10 μM STS positive control
Label criterion met when D9-choline uptake % effect 1 μM is at or above 30%; anything below gets criterion not met.

>>> cat("COc1ccc(C(=O)NCc2cc(C(C)C)no2)cc1OC1CCN(C)CC1 [ML-352, reference compound]")
"criterion met"
>>> cat("CNC(=O)C1CCCN1c1nc(Cc2ccccc2F)cc(Nc2cc(C3CC3)[nH]n2)n1 (stereo not drawn) [Compound 6]")
"criterion met"
>>> cat("O=C(NCc1ccc(Cl)cc1)c1ccc2snc(N3CCNCC3)c2c1 [Compound 4]")
"criterion not met"
>>> cat("CNC(=O)C1CCC(Nc2nc(Nc3ccc(S(C)(=O)=O)cc3)ncc2C(F)(F)F)C1 (stereo not drawn) [Compound 7]")
"criterion met"
>>> cat("N#Cc1c[nH]c2ncnc(N3CCC4(CC3)CNCc3ccc(C(F)(F)F)nc34)c12 [Compound 8]")
"criterion not met"

* * *

Target: high affinity choline transporter (CHT) (Homo sapiens)
Construct: expressed in transfected cells; host or cells: HEK-293, lentiviral transduction, single-cell clone CHT-WT4
Sequence (Q9GZV3 1-580): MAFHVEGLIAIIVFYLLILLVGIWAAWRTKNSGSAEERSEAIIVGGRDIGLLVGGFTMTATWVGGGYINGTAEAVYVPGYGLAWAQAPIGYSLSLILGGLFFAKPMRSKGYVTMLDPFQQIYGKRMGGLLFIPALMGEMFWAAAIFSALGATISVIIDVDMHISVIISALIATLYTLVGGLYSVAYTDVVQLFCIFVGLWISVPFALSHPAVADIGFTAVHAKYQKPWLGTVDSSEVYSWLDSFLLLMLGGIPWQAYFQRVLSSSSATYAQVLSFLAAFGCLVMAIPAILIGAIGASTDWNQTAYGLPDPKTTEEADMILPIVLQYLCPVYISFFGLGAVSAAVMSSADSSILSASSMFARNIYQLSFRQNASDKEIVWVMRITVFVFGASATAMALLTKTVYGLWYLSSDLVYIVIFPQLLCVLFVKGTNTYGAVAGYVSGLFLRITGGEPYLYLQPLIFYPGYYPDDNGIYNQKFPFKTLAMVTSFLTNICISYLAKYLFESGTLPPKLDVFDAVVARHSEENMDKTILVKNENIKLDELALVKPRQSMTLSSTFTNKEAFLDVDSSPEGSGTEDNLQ
Assay: Radiometric [3H]Choline uptake assay (scintillation proximity) in HEK cells expressing CHT
Type: cell-based
Experimental: Uptake of [^3H]Choline (American Radiochemicals; ART 0197; 1,000 Ci/vial; Specific Activity 60–90 Ci/mmol) was measured in HEK cells expressing the high affinity choline transporter (CHT), clone WT4. Cells were plated at 50,000 cells /well in 200 μL culture media on a PDL coated Cytostar-T 96 well plate (Perkin Elmer) 24 h prior to assay. […] Plates were sealed with TopSeals (Perkin Elmer) and incubated in darkness for 3 h at room temperature before reading using a Wallac Microbeta, 1 min/well. […]
pIC50: −log10 of the molar value.
PROPERTY MEASURED: pIC50

>>> experimental_value("C[N+]1(C)CCOC(O)(c2ccc(-c3ccc(C4(O)C[N+](C)(C)CCO4)cc3)cc2)C1 (stereo not shown) [HC-3, hemicholinium-3, reference compound]")
6.94

Value source: paper PMC5326799
